Oxysterols receptor LXR-beta (Homo sapiens) IC50, compiled from various sources.
Give bare numbers, in nM.

| molecule | measurement-kind | value-reported |
| --- | --- | --- |
| O=C(O)c1ccc(COc2cccc(-c3c(Cc4ccccc4)cnc4c(C(F)(F)F)cccc34)c2)c(Cl)c1 | IC50 | 1560 |

Please supply IC50 for each of the following items, keeping them in order.
1. CCS(=O)(=O)N(Cc1ccc(-c2cccc(S(C)(=O)=O)c2)s1)CC(C)C
2. CCC(C)S(=O)(=O)c1ccc(Oc2cccc(-c3c(C)nc4c(C(F)(F)F)cccn34)c2)cc1 (centres unmarked)
3. CS(=O)(=O)c1cccc(-c2ccc(C3CN(S(=O)(=O)c4ccccc4)C(=O)N3c3ccccc3)cc2)c1 (centres unmarked)
4. Cc1ccc(S(C)(=O)=O)cc1C(=O)Oc1cccc(-c2c(C(C)C)cnc3c(C(F)(F)F)cccc23)c1
5. O=C(O)c1c(F)cccc1OCc1cccc(-c2c(Cc3ccccc3)cnc3c(C(F)(F)F)cccc23)c1

1. 2860
2. 508
3. 280
4. 3
5. 1600

* * *

Field: log10 IC50. System: UniProt:P55055. Provenance: assorted publications.
Scale: decimal log of IC50, IC50 in nM.

Solved entries (count: 5):
| molecule | log10 IC50 |
| --- | --- |
| CN(CCCS(=O)(=O)c1cccc(Oc2ccc(F)c(-c3ncnc4c(Cl)cccc34)c2)c1)S(C)(=O)=O | 3.30 |
| CCS(=O)(=O)c1cccc(Oc2ccc(-c3c(C(C)C)nc4c(C(F)(F)F)cccn34)cc2)c1 | 2.07 |
| O=C(O)Cc1ccc(NCc2cccc(-c3c(Cc4ccccc4)cnc4c(C(F)(F)F)cccc34)c2)cc1Cl | 0.60 |
| Cc1ccccc1N1CCN(S(=O)(=O)c2ccccc2)CC1c1cccc(-c2cccc(S(C)(=O)=O)c2)c1 (stereo not drawn) | 2.22 |
| Cn1c(C(=O)O)cc2cc(NCc3cccc(-c4c(Cc5ccccc5)cnc5c(C(F)(F)F)cccc45)c3)ccc21 | 2.52 |

Quick batch: log10 IC50 for everything below.
1. CS(=O)(=O)c1cccc(-c2ccc(-c3nc4cccc(C(F)(F)F)c4nc3N)cc2)c1
2. Cc1ccc(C(=O)O)c(NCc2cccc(-c3c(Cc4ccccc4)cnc4c(C(F)(F)F)cccc34)c2)c1
3. O=C(O)c1ccc(Cn2ccc3c(-c4c(Cc5ccccc5)cnc5c(C(F)(F)F)cccc45)cccc32)cc1
4. Cc1nc2c(C(F)(F)F)cccc2nc1-c1cc(Oc2cc(F)cc(S(C)(=O)=O)c2)ccc1Cl
5. CC(C)CN(Cc1ccc(-c2cccc(S(C)(=O)=O)c2)s1)S(C)(=O)=O

[2.86, 2.22, 3.39, 1.51, 3.85]

* * *

A compilation of published pIC50 results with Oxysterols receptor LXR-beta (Homo sapiens, UniProt P55055).
Give bare numbers, as −log10 of the molar value.

Completed entries (count: 5):
| molecule | pIC50 |
| --- | --- |
| Cc1nc2c(C(F)(F)F)cccc2nc1-c1cc(Oc2cccc(S(=O)(=O)CCCO)c2)ccc1Cl | 7.20 |
| O=C(O)Cc1ccc(NCc2cccc(-c3ccnc4c(C(F)(F)F)cccc34)c2)c2ccccc12 | 5.69 |
| CC(C)N1C(=O)N(S(=O)(=O)C(C)C)CC1c1cccc(-c2cccc(S(C)(=O)=O)c2)c1 (centres unmarked) | 7.44 |
| Cc1ccc(S(=O)(=O)N(C)C)cc1C(=O)Oc1cccc(-c2c(C(C)C)cnc3c(C(F)(F)F)cccc23)c1 | 7.62 |
| CS(=O)(=O)c1cc(Oc2ccc(F)c(-c3ncnc4c(C(F)(F)F)cccc34)c2)ccc1C#N | 6.30 |

Give pIC50 for all molecules that follow.
1. CCCN(Cc1cccc(-c2cccc(S(C)(=O)=O)c2)c1)S(=O)(=O)C(C)C
2. CC(C)(C)c1nc2c(C#N)cccn2c1-c1cccc(Oc2cccc(S(=O)(=O)CCCO)c2)c1
3. CC(C)(C)OC(=O)N1C[C@H](c2cccc(-c3cncc(S(C)(=O)=O)c3)c2)[C@H](c2ccccc2)CC1=O (relative stereo)
4. COc1cccc(S(=O)(=O)N2CCN(c3ccccc3)C(C(=O)N3CCN(c4cc(C)ccc4C)CC3)C2)c1 (centres unmarked)
5. O=C(O)Cc1cccc2ccc(OCc3cccc(-c4ccnc5c(C(F)(F)F)cccc45)c3)cc12
6. CC(C)(C)OC(=O)N1C[C@H](c2cccc(-c3cccc(S(C)(=O)=O)c3)c2)[C@H](c2ccccc2)CC1=O (relative stereo)
7. O=C(O)c1ccc(F)c(OCc2cccc(-c3c(Cc4ccccc4)cnc4c(C(F)(F)F)cccc34)c2)c1
8. CCc1nc2c(C(F)(F)F)cccn2c1-c1ccc(Oc2cccc(S(C)(=O)=O)c2)cc1

5.81
6.82
6.41
6.11
5.26
7.68
6.24
6.47

Dear reader, for each entry below, please note its pIC50.
1. CS(=O)(=O)c1cccc(-c2cccc(Oc3cnc4c(Cl)cccc4n3)c2)c1
2. Cc1ccc(S(C)(=O)=O)cc1C(=O)Oc1cccc(-c2c(C)cnc3c(C(F)(F)F)cccc23)c1
3. CCc1nc2c(Cl)cccn2c1-c1cccc(COc2cccc(S(C)(=O)=O)c2)c1
4. Cc1ccc(C)c(-c2cccc(C3CN(C(=O)OC(C)(C)C)CCC3c3ccccc3)c2)c1 (centres unmarked)
5. CCS(=O)(=O)c1cccc(Oc2cccc(-c3c(C(C)C)nc4c(C(F)(F)F)cccn34)c2)c1
6. Cc1cc(C(=O)O)c(C)cc1NCc1cncc(-c2c(Cc3ccccc3)cnc3c(C(F)(F)F)cccc23)c1

[6.58, 7.46, 6.57, 4.71, 8.30, 6.83]

For every listed record, write down its pIC50.
1. CCS(=O)(=O)c1cccc(C(=O)Oc2cccc(-c3c(C(C)C)cnc4c(C(F)(F)F)cccc34)c2)c1
2. CNS(=O)(=O)c1cccc(-c2ccc(-c3nc4c(C(F)(F)F)cccc4nc3C)cc2)c1
3. CS(=O)(=O)c1cccc(Oc2ccc(-n3cnc4c(C(F)(F)F)cccc43)c(Cl)c2)c1

1: 8.40; 2: 5.96; 3: 6.32

Provide pIC50 for all items below, preserving their order.
1. O=C(O)Cc1cccc2cc(OCc3cccc(-c4ccnc5c(C(F)(F)F)cccc45)c3)ccc12
2. O=C(O)CCCCS(=O)(=O)c1cccc(Oc2ccc(F)c(-c3ncnc4c(Cl)cccc34)c2)c1
3. O=C(O)c1ccc(F)c(NCc2cccc(-c3c(Cc4ccccc4)cnc4c(C(F)(F)F)cccc34)c2)c1

1: 6.27; 2: 5.47; 3: 6.60
